Data credit: patent US10047051B2

target: CFTR-G178R (Homo sapiens, UniProt P13569, G178R); experiment: YFP-halide influx assay for the CFTR-G178R
Sequence (P13569 whole entry G178R): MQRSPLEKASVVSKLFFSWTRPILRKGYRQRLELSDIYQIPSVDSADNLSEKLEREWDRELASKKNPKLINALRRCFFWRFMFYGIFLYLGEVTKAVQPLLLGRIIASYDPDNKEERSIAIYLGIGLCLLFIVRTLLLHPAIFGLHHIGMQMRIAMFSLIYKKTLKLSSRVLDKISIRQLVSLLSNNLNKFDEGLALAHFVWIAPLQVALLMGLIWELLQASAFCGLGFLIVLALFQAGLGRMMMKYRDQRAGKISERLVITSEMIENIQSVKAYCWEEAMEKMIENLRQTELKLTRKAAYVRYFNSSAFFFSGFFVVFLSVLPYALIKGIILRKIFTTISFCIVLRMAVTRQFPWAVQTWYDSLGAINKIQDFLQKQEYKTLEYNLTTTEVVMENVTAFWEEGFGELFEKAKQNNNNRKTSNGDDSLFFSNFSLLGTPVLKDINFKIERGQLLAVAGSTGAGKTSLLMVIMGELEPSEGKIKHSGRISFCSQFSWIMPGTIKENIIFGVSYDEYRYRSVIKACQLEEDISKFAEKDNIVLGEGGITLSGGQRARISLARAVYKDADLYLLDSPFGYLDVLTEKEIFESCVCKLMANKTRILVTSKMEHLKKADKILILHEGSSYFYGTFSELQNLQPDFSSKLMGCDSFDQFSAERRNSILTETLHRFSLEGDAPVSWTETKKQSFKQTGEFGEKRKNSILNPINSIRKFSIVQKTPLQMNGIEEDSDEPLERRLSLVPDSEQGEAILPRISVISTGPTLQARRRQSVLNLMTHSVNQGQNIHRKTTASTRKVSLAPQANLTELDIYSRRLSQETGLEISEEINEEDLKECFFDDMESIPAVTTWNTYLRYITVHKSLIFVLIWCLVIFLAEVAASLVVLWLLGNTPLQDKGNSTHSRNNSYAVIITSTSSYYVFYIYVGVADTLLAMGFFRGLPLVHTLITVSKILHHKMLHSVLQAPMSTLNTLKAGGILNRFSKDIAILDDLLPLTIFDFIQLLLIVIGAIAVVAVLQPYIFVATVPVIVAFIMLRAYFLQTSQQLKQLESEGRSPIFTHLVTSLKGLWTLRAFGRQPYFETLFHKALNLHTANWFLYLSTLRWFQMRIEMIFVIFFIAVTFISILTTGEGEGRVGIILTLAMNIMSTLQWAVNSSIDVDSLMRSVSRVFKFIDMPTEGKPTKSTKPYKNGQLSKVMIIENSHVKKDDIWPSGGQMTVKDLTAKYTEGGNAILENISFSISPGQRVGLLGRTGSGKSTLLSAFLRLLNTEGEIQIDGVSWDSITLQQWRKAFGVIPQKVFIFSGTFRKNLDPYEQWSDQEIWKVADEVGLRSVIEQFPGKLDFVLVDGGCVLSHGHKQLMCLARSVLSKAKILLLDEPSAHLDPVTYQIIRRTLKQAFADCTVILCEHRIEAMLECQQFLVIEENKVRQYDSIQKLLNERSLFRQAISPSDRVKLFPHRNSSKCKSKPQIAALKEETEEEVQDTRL
Below, each entry is listed alongside its reported EC50.

As a guide, the following entries are already answered.
Nc1cc(S(=O)(=O)c2ccccc2OC(F)(F)F)cnc1C(=O)NCCO :: 323 nM
CC(C)(C)C(O)CNC(=O)c1ncc(S(=O)(=O)c2ccc(OC(F)(F)F)cc2)cc1N (stereo not drawn) :: 1010 nM

Lab note: COCC(O)CNC(=O)c1ncc(S(=O)(=O)c2ccc(OC(F)(F)F)cc2)cc1N (stereo not drawn) gave EC50 of 392 nM

###

Below, each entry is listed alongside its reported log10 EC50.
molecular target: CFTR-S549N (Homo sapiens, UniProt P13569, S549N); test: YFP-halide influx assay for the CFTR-S549N
Sequence (P13569 whole entry S549N): as the sequence (P13569 whole entry G178R) above, with R178G, S549N counted along it
Would you kindly interpret these values as log10 of EC50 expressed in nM?

As a guide, the following entries are already answered.
C[C@H](O)CNC(=O)c1ncc(S(=O)(=O)c2ccc(OC(F)(F)F)cc2)cc1N :: 2.87
Nc1cc(S(=O)(=O)c2ccc(F)cc2)cnc1C(=O)NC[C@H](O)C(F)(F)F :: 2.47
CC(C)(O)CNC(=O)c1ncc(S(=O)(=O)c2ccc(C(F)(F)F)cc2)cc1N :: 2.98
Nc1cc(S(=O)(=O)c2ccc(OC(F)(F)F)cc2)cnc1C(=O)N1CC(O)(C2CC2)C1 :: 2.14
COCC(O)CNC(=O)c1ncc(S(=O)(=O)c2ccccc2OC(F)(F)F)cc1N (stereo not shown) :: 2.16

Lab note: Nc1cc(S(=O)(=O)c2ccccc2OC(F)(F)F)cnc1C(=O)N1CC(O)(C(F)(F)F)C1 gave log10 EC50 of 0.52

Lab note: CC(C)OCC(O)CNC(=O)c1ncc(S(=O)(=O)c2ccc(C(F)(F)F)cc2)cc1N (stereo not shown) gave log10 EC50 of 2.12

Lab note: Nc1cc(S(=O)(=O)c2ccccc2OC(F)(F)F)cnc1C(=O)NC[C@@H](O)C(F)(F)F gave log10 EC50 of 1.05

###

molecular target: CFTR G551D mutant (Homo sapiens, UniProt P13569, G551D); test: YFP-halide influx assay for the CFTR-G551D mutation (HEK293 cells); details: forskolin 10.67 μM
Sequence (P13569 whole entry G551D): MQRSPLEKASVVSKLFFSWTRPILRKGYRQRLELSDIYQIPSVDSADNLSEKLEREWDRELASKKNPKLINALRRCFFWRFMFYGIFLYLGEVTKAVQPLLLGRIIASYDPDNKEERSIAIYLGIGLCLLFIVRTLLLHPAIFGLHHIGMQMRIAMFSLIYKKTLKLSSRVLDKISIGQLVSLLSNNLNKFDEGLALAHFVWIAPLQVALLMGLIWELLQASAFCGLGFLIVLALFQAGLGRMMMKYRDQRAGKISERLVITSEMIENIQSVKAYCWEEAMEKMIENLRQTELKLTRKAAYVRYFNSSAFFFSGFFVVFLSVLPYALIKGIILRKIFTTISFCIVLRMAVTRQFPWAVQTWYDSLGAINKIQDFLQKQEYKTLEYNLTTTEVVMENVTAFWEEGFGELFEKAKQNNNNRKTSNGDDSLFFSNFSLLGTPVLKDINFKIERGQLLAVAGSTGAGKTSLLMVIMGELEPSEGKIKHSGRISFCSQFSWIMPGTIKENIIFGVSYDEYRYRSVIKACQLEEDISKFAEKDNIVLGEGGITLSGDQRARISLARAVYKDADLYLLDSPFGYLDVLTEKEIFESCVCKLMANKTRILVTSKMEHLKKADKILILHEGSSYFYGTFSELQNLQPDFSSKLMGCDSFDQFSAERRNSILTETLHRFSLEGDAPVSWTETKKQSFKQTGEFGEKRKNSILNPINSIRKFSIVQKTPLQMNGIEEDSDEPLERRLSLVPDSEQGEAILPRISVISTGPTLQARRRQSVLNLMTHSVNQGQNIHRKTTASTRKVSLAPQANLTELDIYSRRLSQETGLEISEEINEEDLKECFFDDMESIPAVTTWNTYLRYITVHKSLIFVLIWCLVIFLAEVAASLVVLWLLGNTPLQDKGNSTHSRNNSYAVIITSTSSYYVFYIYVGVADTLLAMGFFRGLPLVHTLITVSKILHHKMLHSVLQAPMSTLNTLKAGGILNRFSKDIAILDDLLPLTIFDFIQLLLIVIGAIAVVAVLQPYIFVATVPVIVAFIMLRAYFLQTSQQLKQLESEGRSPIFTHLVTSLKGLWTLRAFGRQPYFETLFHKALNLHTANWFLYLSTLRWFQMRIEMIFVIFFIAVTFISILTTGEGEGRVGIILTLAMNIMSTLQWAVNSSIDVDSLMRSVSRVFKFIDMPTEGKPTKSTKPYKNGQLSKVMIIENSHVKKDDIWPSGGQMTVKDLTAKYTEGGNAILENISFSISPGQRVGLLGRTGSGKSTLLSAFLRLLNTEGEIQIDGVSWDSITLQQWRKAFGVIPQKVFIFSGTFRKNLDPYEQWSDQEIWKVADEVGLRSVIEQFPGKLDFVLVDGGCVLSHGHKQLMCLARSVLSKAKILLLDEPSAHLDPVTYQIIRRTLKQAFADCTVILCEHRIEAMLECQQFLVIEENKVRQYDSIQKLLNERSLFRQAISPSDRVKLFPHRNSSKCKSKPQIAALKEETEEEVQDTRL
Below, each entry is listed alongside its reported pEC50.
Just the number, please; pEC50 means minus log10 of the concentration in mol/L.

Lab note: Nc1cc(S(=O)(=O)c2ccc(OC(F)(F)F)cc2)cnc1C(=O)N1CC[C@H](F)C1 [Compound 206] gave pEC50 of 5.50

###

molecular target: CFTR-G1349D (Homo sapiens, UniProt P13569, G1349D); assay: YFP-halide influx assay for the CFTR-G1349D
Sequence (P13569 whole entry G1349D): as the sequence (P13569 whole entry G178R) above, with R178G, G1349D counted along it
outcome.measure: log10 EC50 (log10 of the value in nM)
Would you kindly interpret these values as log10 of EC50 expressed in nM?

COC[C@H](O)CNC(=O)c1ncc(S(=O)(=O)c2ccc(C(F)(F)F)cc2)cc1N :: 2.58
CC(C)OCC(O)CNC(=O)c1ncc(S(=O)(=O)c2ccc(C(F)(F)F)cc2)cc1N (stereo not shown) :: 1.49
Nc1cc(S(=O)(=O)c2ccc(C(F)(F)F)cc2)cnc1C(=O)NC[C@@H](O)C(F)(F)F :: 2.41
Nc1cc(S(=O)(=O)c2ccc(OC(F)(F)F)cc2)cnc1C(=O)N[C@@H]1COC[C@H]1O (racemic) :: 2.71

Known value: CFTR-G1349D (Homo sapiens, UniProt P13569, G1349D) log10 EC50 of the compound Nc1cc(S(=O)(=O)c2ccc(F)cc2)cnc1C(=O)NC[C@@H](O)C(F)(F)F equals 2.49

Known value: CFTR-G1349D (Homo sapiens, UniProt P13569, G1349D) log10 EC50 of the compound Nc1cc(S(=O)(=O)c2ccc(OC(F)(F)F)cc2)cnc1C(=O)N1CC(O)(C(F)(F)F)C1 equals 1.79

Known value: CFTR-G1349D (Homo sapiens, UniProt P13569, G1349D) log10 EC50 of the compound CC(C)(O)CNC(=O)c1ncc(S(=O)(=O)c2ccc(C(F)(F)F)cc2)cc1N equals 3.20
